Catalogue of Mean % WT Binding values
target: human CD33 T354A (human, UniProt P20138 18-364); assay: flow cytometry, alanine scan
Sequence (P20138 18-364 T354A limits assumed): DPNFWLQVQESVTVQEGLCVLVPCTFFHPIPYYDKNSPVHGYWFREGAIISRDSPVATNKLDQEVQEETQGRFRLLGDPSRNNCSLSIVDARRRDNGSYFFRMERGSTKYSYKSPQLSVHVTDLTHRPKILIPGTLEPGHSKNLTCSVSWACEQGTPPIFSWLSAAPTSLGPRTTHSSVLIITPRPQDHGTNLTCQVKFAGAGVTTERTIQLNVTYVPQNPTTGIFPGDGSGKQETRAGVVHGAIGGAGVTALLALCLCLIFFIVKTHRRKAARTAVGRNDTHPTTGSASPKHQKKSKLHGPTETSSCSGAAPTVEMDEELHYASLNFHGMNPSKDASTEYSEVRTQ
measured.property: Mean % WT Binding

[[record]]
binder = "Refmab #1 (antibody, V domains shown, The alanine scan used IgG or Fab; also called hP67.6) VH: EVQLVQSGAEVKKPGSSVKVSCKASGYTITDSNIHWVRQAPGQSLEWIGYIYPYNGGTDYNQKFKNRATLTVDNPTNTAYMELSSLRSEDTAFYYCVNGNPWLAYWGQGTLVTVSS VL: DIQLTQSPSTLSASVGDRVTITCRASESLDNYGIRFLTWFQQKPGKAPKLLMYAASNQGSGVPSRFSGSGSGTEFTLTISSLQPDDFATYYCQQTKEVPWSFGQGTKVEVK"
measured_property = "Mean % WT Binding"
recorded_value = "91.8 % of WT"

[[record]]
binder = "Refmab #3 (antibody, V domains shown, The alanine scan used IgG or Fab) VH: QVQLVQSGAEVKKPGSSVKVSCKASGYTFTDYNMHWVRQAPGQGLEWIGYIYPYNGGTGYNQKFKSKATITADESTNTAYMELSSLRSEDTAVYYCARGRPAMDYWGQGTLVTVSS VL: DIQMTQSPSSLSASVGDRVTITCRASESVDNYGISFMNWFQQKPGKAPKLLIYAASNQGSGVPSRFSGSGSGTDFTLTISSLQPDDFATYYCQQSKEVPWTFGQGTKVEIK"
measured_property = "Mean % WT Binding"
recorded_value = "89.1 % of WT"

[[record]]
binder = "Refmab #4 (antibody, V domains shown, The alanine scan used IgG or Fab) VH: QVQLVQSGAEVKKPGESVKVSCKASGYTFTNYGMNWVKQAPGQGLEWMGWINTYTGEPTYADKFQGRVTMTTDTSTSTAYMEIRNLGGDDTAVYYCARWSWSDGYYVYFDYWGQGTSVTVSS VL: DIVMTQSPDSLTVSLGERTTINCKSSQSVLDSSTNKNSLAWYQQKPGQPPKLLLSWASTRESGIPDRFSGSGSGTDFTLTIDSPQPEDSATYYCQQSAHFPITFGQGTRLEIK"
measured_property = "Mean % WT Binding"
recorded_value = "106 % of WT"

[[record]]
binder = "Refmab #2 (antibody, V domains shown, The alanine scan used IgG or Fab) VH: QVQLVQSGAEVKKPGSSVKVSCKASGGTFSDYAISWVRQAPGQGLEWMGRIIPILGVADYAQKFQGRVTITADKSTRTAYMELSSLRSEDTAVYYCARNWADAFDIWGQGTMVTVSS VL: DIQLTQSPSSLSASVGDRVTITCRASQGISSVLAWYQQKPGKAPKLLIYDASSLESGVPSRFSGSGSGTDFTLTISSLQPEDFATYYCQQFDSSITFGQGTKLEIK"
measured_property = "Mean % WT Binding"
recorded_value = "111 % of WT"


Attribution: patent US20260242735A1
